Reference for the values: ChEMBL document CHEMBL1156002

Measured inhibition zone (IZ) accompanies every entry in the list below.
Test system: Hanseniaspora guilliermondii
protocolNotes: Antifungal activity against Hanseniaspora guilliermondii DSM 3432 after 72 hrs by agar disk diffusion assay; also: test concentration or dose not given here
Format: functional
recordedEndpoint: inhibition zone (IZ) (mm)

O=C1CSSCC(=O)Nc2nc(nc(-c3ccccc3)n2)NC(=O)CSSCC(=O)Nc2nc(nc(-c3ccccc3)n2)N1 | 20
O=C1CCSCCC(=O)Nc2nc(nc(-c3ccccc3)n2)NC(=O)CCSCCC(=O)Nc2nc(nc(-c3ccccc3)n2)N1 | 19
O=C1CCSSCCC(=O)Nc2nc(nc(-c3ccccc3)n2)NC(=O)CCSSCCC(=O)Nc2nc(nc(-c3ccccc3)n2)N1 | 22
O=C1CSCC(=O)Nc2nc(nc(-c3ccccc3)n2)NC(=O)CSCC(=O)Nc2nc(nc(-c3ccccc3)n2)N1 | 20
